# tgt: T1, CTLA4-his (UniProt P16410 36-161, limits assumed)
# T1 construct: construct not described; also called Ag CTLA4-his; Antigen CTLA4-his; not shown: his tag
# T1 sequence (looked up): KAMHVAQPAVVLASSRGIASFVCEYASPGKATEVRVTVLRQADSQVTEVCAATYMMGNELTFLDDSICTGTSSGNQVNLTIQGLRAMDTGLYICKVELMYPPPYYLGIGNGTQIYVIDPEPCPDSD
# experimental protocol: SPR Biacore T200, antibody from supernatant captured by anti-human Fc, CTLA4-his injected
observed property: pKd
Worth noting: pKd values are minus log10 of concentrations stated in mol/L.

Q: Name the reported pKd value associated with the binder Humanized Ab 8 (VH3 + VL2) (antibody, human IgG1, kappa, V domains shown, Humanized IgG1 derived from MAb A4, full length, HEK293) VH: QVQLVQSGAEVKKPGASVKVSCKASGYKFTDHFINWVKQAPGQGLEWIGDINPNNGGTNSNQKFEGRVTLTVDTSISTAYMELSRLRSDDTAVYYCARLRREYFYAMDYWGQGTLVTVSS VL: DIVMTQSPLSLPVTPGEPASISCRSSKSLLHSNGITYLYWYLQKPGQSPQLLIYQMSNLASGVPDRFSSSGSGTDFTLKISRVEAEDVGVYYCAQNLELPLTFGGGTKVEIKR
Result: 9.10

Consider the additional binder presented here.
Q: Name the reported pKd value associated with the binder Humanized Ab 4 (VH2 + VL1) (antibody, human IgG1, kappa, V domains shown, Humanized IgG1 derived from MAb A4, full length, HEK293) VH: QVQLVQSGAEVKKPGASVKVSCKASGYKFTDHFINWVRQAPGQGLEWIGDINPNNGGTNSNQKFEGRVTMTVDTSISTAYMELSRLRSDDTAVYYCARLRREYFYAMDYWGQGTLVTVSS VL: DIVMTQSPLSLPVTPGEPASISCRSSKSLLHSNGITYLYWYLQKPGQSPQLLIYQMSNLASGVPDRFSGSGSGTDFTLKISRVEAEDVGVYYCAQNLELPLTFGGGTKVEIKR
Result: 9.08
